Recorded values, source PubChem BioAssay.

Quick reference: composite z-score of the listed items.
target: Streptavidin (Streptomyces avidinii); test: streptavidin binders on small-molecule microarray, primary screen, artefact control for SMM compound annotation, biophysical, 635/667 nm fluorescence (AID 1147); conditions: streptavidin binding, higher = more signal;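 note: signal reflects streptavidin binding to arrayed compounds as a control protein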

molecule: [N-]=[N+]=Nc1ccccc1[C@H]1OC(c2ccc(OCCCO)cc2)=N[C@@]1(CCS(=O)(=O)c1ccccc1)C(=O)NCCN1CCOCC1
composite z-score: 0.866
//
molecule: CCCCO[C@H]1C[C@H]2C(I)=C[C@@H]1C(=O)[C@]21CO1
composite z-score: -0.258
//
molecule: COCCOC(=O)N1C(=O)[C@@]2(c3cc(C#Cc4ccc(OC)cc4)ccc31)[C@H](C(=O)Nc1nc3ccccc3s1)[C@H]1C(=O)O[C@H](c3ccccc3)[C@H](c3ccccc3)N1[C@@H]2c1ccc(OCCO)cc1
composite z-score: 1.12
//
molecule: Cc1cc(C)c(C(O)C2C=CC3C(=O)NC(=O)C3N2Nc2ccc(Cl)cc2Cl)c(C)c1 (stereo not drawn)
composite z-score: 1.64
//
molecule: CN1C(=O)C2C=CC(C(O)C#Cc3ccccc3)N(Nc3ccccc3)C2C1=O (stereo not drawn)
composite z-score: 1.38
//
molecule: CCOC(=O)[C@H]1[C@@H]2C(=O)N3CCC[C@H]3[C@H](O[Si](C(C)C)(C(C)C)C(C)C)[C@H]2C=C2CCN(S(=O)(=O)c3ccc(C)cc3)C[C@H]21
composite z-score: 1.03
//
molecule: CC1CC/C=C\[C@H]2OC34C=CCN(c5ccc(Cl)cc5)C(=O)[C@H]3N(CCCCCO)C(=O)[C@]4(C)C2C(=O)O1 (stereo partly drawn)
composite z-score: -1.18
//
molecule: CC(C)[Si](C#CCCCC#N)(O[C@H](c1ccccc1)c1cn([C@H](CO)Cc2ccccc2)nn1)C(C)C
composite z-score: 1.18
//
molecule: COc1ccc(CN(C2=CC[C@@]3(C(N)=O)C(=O)C(Cl)=C(Cl)C(=O)[C@@]3(C#N)C2)S(=O)(=O)c2ccc(Br)cc2)cc1
composite z-score: 0.62
//
molecule: NCCCCCCNC(=O)[C@@H]1C[C@@H]2C(=O)N[C@@H](CCCCN)C(=O)N2[C@@H]1c1cccc(OCCO)c1
composite z-score: 0.125
//
molecule: CN1C(=O)C2C=CC(C(O)c3ccc(F)cc3)N(Nc3ccccc3)C2C1=O (stereo not drawn)
composite z-score: 0.473
//
molecule: COC(=O)[C@@]1(Cc2ccccc2N=[N+]=[N-])N=C(c2ccc(OCCCO)cc2)O[C@H]1c1ccccc1N=[N+]=[N-]
composite z-score: 0.169
//
molecule: CC(CO)N1C(=O)[C@@H]2[C@H]3C(=O)OCC=C[C@H]3OC23C=CCN(CCN2CCOCC2)C(=O)[C@@H]13 (stereo partly drawn)
composite z-score: -0.418
//
molecule: [N-]=[N+]=NCc1ccccc1C[C@]1(C(N)=O)N=C(c2ccc(OCCCO)cc2)O[C@H]1c1ccccc1
composite z-score: 0.363
//
molecule: [N-]=[N+]=Nc1ccccc1C[C@]1(C(N)=O)N=C(c2ccc(OCCCO)cc2)O[C@H]1c1ccccc1N=[N+]=[N-]
composite z-score: 1.22
//
molecule: CN(C)C(=O)[C@]1(CCS(=O)(=O)c2ccccc2)N=C(c2ccc(OCCCO)cc2)O[C@@H]1c1ccccc1N=[N+]=[N-]
composite z-score: 2.06
//
molecule: C=CCOC(=O)[C@H]1[C@@H]2C(=O)O[C@@H](c3ccccc3)[C@@H](c3ccccc3)N2[C@@H](c2ccc(OCCOC(=O)[C@@H]3C[C@@H]4C(=O)N[C@@H](CCCCN(C)C)C(=O)N4[C@@H]3c3ccc(O)cc3)cc2)[C@]12C(=O)Nc1ccccc12
composite z-score: -0.245
//
molecule: COC(=O)c1c2oc(c1C(=O)OC)C(=O)N(Cc1ccccc1)Cc1cn(nn1)C[C@H](Cc1ccccc1)NC(=O)N[C@H](CO)CC2
composite z-score: -0.25
//
molecule: COC(=O)C(CC#Cc1ccc2c(c1)[C@]1(C(=O)N2)[C@H](c2ccccc2OCCO)N2[C@H](c3ccccc3)[C@H](c3ccccc3)OC(=O)[C@H]2[C@@H]1C(=O)NC[C@H](O)c1ccccc1)C(=O)OC
composite z-score: 0.0979
//
molecule: O=C1O[C@H](c2ccccc2)[C@H](c2ccccc2)N2[C@H]1[C@@H](C(=O)N1CCN(c3ncccn3)CC1)[C@]1(C(=O)Nc3ccc(C#CC4(O)CCCCCC4)cc31)[C@H]2c1ccc(OCCO)cc1
composite z-score: 2.76
//
molecule: C=C(C)c1cc2c(c(CCCCCC)n1)[Si](C(C)C)(C(C)C)OC2
composite z-score: -1.01
//
molecule: O=C1C2C=CC(C(O)c3ccccc3)N(Nc3ccccc3F)C2C(=O)N1c1ccccc1 (stereo not drawn)
composite z-score: 0.23
//
molecule: CN(C)c1ccc(C(O)C2C=CC3C(=O)N(c4ccccc4)C(=O)C3N2Nc2ccc([N+](=O)[O-])cc2)cc1 (stereo not drawn)
composite z-score: 0.769
//
molecule: COc1ccc(-c2nc(-c3ccccc3)c3c(c2C)CO[Si]3(C(C)C)C(C)C)cn1
composite z-score: 0.188
//
molecule: COc1cc(OC)c(C(O)C2C=CC3C(=O)N(c4ccccc4)C(=O)C3N2Nc2ccccc2)cc1Br (stereo not drawn)
composite z-score: 1.24
//
molecule: COC(=O)[C@@]1(Cc2ccccc2)[C@H]2c3cc(C(=O)N(C)C)n(Cc4c(CO)[nH]cc(C)c4=O)c3C[C@H]2CN1C(=O)c1ccccc1
composite z-score: 0.0174
//
molecule: COCCCNC(=O)[C@]1(CCS(=O)(=O)c2ccccc2)N=C(c2ccc(OCCCO)cc2)O[C@@H]1c1ccccc1CN=[N+]=[N-]
composite z-score: 2.07
//
molecule: O=C1OCCC/C=C\[C@H]2OC34C=CCN(CCN5CCOCC5)C(=O)[C@H]3N(CCCCCCO)C(=O)[C@@H]4C12 (stereo partly drawn)
composite z-score: -0.215

* * *

Quick reference: z-score of the listed items.
assay: MM1S cell viability effects, profiling panel, calcein-AM fluorescence, 48 h, basal (AID 1165); conditions: higher = more signal;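 note: viability of MM1S multiple myeloma cells under basal unstimulated conditions; test concentration not given here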
measuredMetric: z-score

compound: COC(=O)[C@@]1(Cc2ccc(OC)cc2)[C@H]2c3cc(C(=O)N(C)C)n(C[C@H](O)CO)c3C[C@H]2CN1C(=O)c1ccccc1
measuredMetric: z-score
observedMeasurement: -1.99

compound: Cc1ccc(S[C@]2(C(=O)O)CC(=O)N(Cc3cc(C(F)(F)F)cc(C(F)(F)F)c3)[C@@H]2c2ccc(CO)cc2)cc1
measuredMetric: z-score
observedMeasurement: -0.424

compound: O=C(NCC(F)(F)F)[C@@H]1c2ccccc2C(=O)N(Cc2cc(F)cc(C(F)(F)F)c2)[C@H]1c1ccc(CO)cc1
measuredMetric: z-score
observedMeasurement: 0.227

compound: O[C@@H](Cc1ccccc1)[C@@H](/C=C/C1CC1)N(CC#Cc1ccccc1)Cc1cccc(Cl)c1
measuredMetric: z-score
observedMeasurement: -0.217

* * *

experiment: E. coli acrAB mutant growth effects, primary screen, E. coli filamentation inducers, strain DRC39, OD650, 24 h (AID 1178); details: higher = more signal, called active from +8 up or from −8 down;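 note: growth measured as culture turbidity by optical density at 650 nm; test concentration not given here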
Short version: z-score at least -0.2 is true (1), less is false (0).

compound: COC(=O)C(CC#Cc1ccc2c(c1)[C@]1(C(=O)N2)[C@H](c2ccccc2OCCO)N2[C@H](c3ccccc3)[C@H](c3ccccc3)OC(=O)[C@H]2[C@@H]1C(=O)NC[C@H](O)c1ccccc1)C(=O)OC
labelValue: true (1)

compound: CCOc1cc(C(O)C2C=CC3C(=O)N(c4ccccc4)C(=O)C3N2Nc2ccc(C#N)cc2)ccc1O (configuration not stated)
labelValue: false (0)

compound: COc1ccccc1CN1C(=O)c2ccccc2[C@@]2(Cc3ccccc3N(CC(F)(F)F)C2=O)[C@@H]1c1ccc(CO)cc1
labelValue: true (1)

compound: [N-]=[N+]=NCc1ccccc1[C@H]1OC(c2ccc(OCCCO)cc2)=N[C@@]1(CCS(=O)(=O)c1ccccc1)C(=O)N1CCCCC1
labelValue: true (1)

compound: CCCCCCCCCCC(O)C1C=CC2C(=O)N(C)C(=O)C2N1NC(=O)OC(C)(C)C (configuration not stated)
labelValue: false (0)

compound: COCCOC(=O)N1C(=O)[C@@]2(c3cc(C#CCCO)ccc31)[C@H](c1ccccc1OCCO)N1[C@H](c3ccccc3)[C@H](c3ccccc3)OC(=O)[C@H]1[C@@H]2C(=O)Nc1nc2ccccc2s1
labelValue: false (0)

compound: O=C1NC(=O)C2C1C=CC(C(O)c1cccc3ccccc13)N2Nc1ccc(Cl)cc1Cl (configuration not stated)
labelValue: false (0)

* * *

Quick reference: z-score of the listed items.
assay: S. cerevisiae RM11-1a growth modifiers, primary screen, strain RM11-1a, OD600, basal, 24 h (AID 1177); settings: OD600, 24 h, higher = more signal, called active from +8 up or from −8 down;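 note: cultures grown under basal conditions with no added stressor; test concentration not given here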

molecule: CCOC(=O)C[C@H]1[C@H](OC(=O)c2cc3ccccc3oc2=O)[C@@H](NC(=O)c2ccc(-c3ccccc3)cc2)c2cc(OCCCO)ccc2N1C(=O)c1ccccc1
z-score: -0.272
--
molecule: CCOC(=O)c1ccc(NC(=O)O[C@H]2[C@H](OC(=O)Nc3ccc4c(c3)OCO4)[C@@H](OC(=O)Nc3ccc4c(c3)OCO4)[C@@H](OC)O[C@@H]2CO)cc1
z-score: 2.29
--
molecule: CN(C)C(=O)[C@]1(CCS(=O)(=O)c2ccccc2)N=C(c2ccc(OCCCO)cc2)O[C@@H]1c1ccccc1N=[N+]=[N-]
z-score: 0.386
--
molecule: C[C@@H]1NC(=O)[C@@]23C(=O)N[C@@H](Cc4ccccc4)C2[C@H](C)[C@@]2(C)O[C@H]2C3/C=C/C/C=C\CNC(=O)[C@@H]2CCCN2C1=O (stereo partly specified)
z-score: -0.142
--
molecule: CC(CO)N1C(=O)[C@@H]2[C@H]3C(=O)OCC=C[C@H]3OC23C=CCN(C(C)(C)C)C(=O)[C@@H]13 (stereo partly specified)
z-score: -0.505
--
molecule: CC(C)(C)OC(=O)CC[C@@]1(C(=O)NCc2ccccc2)N=C(c2ccc(OCCCO)cc2)O[C@@H]1c1ccccc1N=[N+]=[N-]
z-score: 1.99
